Test system: MDA-MB-231 breast
Test: NCI tumour cell line growth inhibition, 48 h
ENDPOINT: TGI (µM)
Your answer should be a plain number; it is taken to be in µM.

Look over these answered cases.
Per the records, this compound ( CCOC(=O)C1=C(C)N2C(=NC3=C(CCC/C3=C\c3ccc(Cl)cc3)C2c2ccc(Cl)cc2)S1 (stereo not drawn) ) has TGI equal to 16.6

Per the records, this compound ( O=C1CSC(c2ccccc2O)N1c1nnc(Cn2ccnc2)o1 (stereo not drawn) ) has TGI equal to 71.4

Per the records, this compound ( `Cc1cc(NC(=O)c2cnc(N3CCN(CCOCCOCCOCCOCCC(=O)N[C@H](C(=O)N4C[C@H](O)C[C@H]4C(=O)N[C@@H](C)c4ccc(-c5scnc5C)cc4)C(C)(C)C)CC3)cn2)c2ncccc2c1` ) has TGI equal to 3.98

Next:
Per the records, this compound ( CN(c1ccc(C#N)c(Cl)c1)C1CCC(NC(=O)c2ccc(N3CCN(C4CN(c5ccc6c(c5)C(=O)N(C5CCC(=O)NC5=O)C6=O)C4)CC3)cc2)CC1 (stereo not drawn) ) has TGI equal to 41.6
